# target_desc: Glycogen phosphorylase, muscle form (Oryctolagus cuniculus)
# Sequence (P00489 whole entry): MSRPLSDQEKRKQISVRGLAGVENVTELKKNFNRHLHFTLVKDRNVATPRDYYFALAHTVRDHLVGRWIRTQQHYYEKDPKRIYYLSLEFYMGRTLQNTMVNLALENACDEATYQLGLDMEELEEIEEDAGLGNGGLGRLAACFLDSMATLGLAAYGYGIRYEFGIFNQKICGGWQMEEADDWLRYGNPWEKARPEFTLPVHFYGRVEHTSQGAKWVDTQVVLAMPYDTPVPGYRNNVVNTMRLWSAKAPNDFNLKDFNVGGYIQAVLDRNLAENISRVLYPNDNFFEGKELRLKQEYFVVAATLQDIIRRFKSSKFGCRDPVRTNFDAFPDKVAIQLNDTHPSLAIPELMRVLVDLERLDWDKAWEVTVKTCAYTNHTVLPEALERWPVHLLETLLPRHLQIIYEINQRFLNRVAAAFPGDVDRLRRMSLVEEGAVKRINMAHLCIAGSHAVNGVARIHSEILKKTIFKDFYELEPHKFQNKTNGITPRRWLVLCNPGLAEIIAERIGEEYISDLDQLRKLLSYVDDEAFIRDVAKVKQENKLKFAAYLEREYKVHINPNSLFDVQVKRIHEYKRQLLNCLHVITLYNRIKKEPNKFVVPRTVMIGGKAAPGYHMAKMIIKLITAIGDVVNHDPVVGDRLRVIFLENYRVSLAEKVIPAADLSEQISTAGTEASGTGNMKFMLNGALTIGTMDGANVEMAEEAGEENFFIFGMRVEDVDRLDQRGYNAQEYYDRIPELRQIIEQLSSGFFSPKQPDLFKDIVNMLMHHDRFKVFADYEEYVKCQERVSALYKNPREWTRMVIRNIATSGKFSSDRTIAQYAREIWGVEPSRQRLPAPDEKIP
# assay_explanation: Inhibition of rabbit muscle glycogen phosphorylase inactive form b
pKi: −log10 of the molar value.
measured_property: pKi

{"smiles_code": "O=c1ccn([C@@H]2O[C@H](CO)[C@@H](O)[C@H](O)[C@H]2O)c(=O)[nH]1", "test_result": 5.21}
{"smiles_code": "Nc1ccn([C@@H]2O[C@H](CO)[C@@H](O)[C@H](O)[C@H]2O)c(=O)n1", "test_result": 5.11}

Cited source for all entries: ChEMBL document CHEMBL1157806
